# Tested on: HCV replicon in resistant clone 10AB7
# METHOD SUMMARY: microbe, parasite or virus in culture
# Type: cell-based
# CONDITION INFO: Hepatitis C virus, Cell-ELISA, read-out: IC50 Compound (Ib)
TEST READOUT: IC50

CC(C)(C)OC(=O)N1CCN(c2ccc(C(=O)Nc3ccc(O)cc3)cc2)CC1 :: > 2000 nM
